- Tested on: KRAS patient-derived spheroids with HUVEC/MSC, viability
- procedure.details: Anticancer human tumor 519858-162-T-J1-PDC patient-derived colon adenocarcinoma cell line growth inhibition [KRAS2]
- details: second compound 1 µM; first compound 0.316 µM; stronger effect = lower value
- From the text: Multicellular complex tumor spheroid response to RAS pathway inhibitors in combination with a targeted agents in patient-derived cell lines with oncogenic KRAS variants from multiple cancer types A high-throughput screen of multi-cell type tumor spheroids was designed to identify active combinations of targeted small molecules and KRAS pathway inhibitors. […] Compounds. […] If the clinical Cmax for an agent had not been determined, the highest concentration tested was 10 microM. […]
Assign viability, T/C to each entry below.
Give the quantity in %, number only.

[Q] Short answer please: viability, T/C, KRAS patient-derived spheroids with HUVEC/MSC, viability, entry Cn1nccc1Nc1nccc(-c2cc3c(s2)C(C)(C)N(CCN2CCOCC2)C3=O)n1 + COc1cc2nc(C)nc(NC(C)c3cc(N)cc(C(F)(F)F)c3)c2cc1OC1CCOC1
[A] 52.8

[Q] Lab request: please report viability, T/C under test system KRAS patient-derived spheroids with HUVEC/MSC, viability for CC(=O)OC12COC1CC(O)C1(C)C(=O)C(O)C3=C(C)C(OC(=O)C(O)C(NC(=O)OC(C)(C)C)c4ccccc4)CC(O)(C(OC(=O)c4ccccc4)C21)C3(C)C (stereo not given) + C=CC(=O)N1CCN(c2nc(=O)n(-c3c(C)ccnc3C(C)C)c3nc(-c4c(O)cccc4F)c(F)cc23)C(C)C1
[A] 83.5

[Q] Entry CC1(C)CCC(CN2CCN(c3ccc(C(=O)NS(=O)(=O)c4ccc(NCC5CCOCC5)c([N+](=O)[O-])c4)c(Oc4cnc5[nH]ccc5c4)c3)CC2)=C(c2ccc(Cl)cc2)C1 + C=CC(=O)N1CCN(c2nc(OCC3CCCN3C)nc3c2CCN(c2cccc4cccc(C)c24)C3)CC1CC#N , system KRAS patient-derived spheroids with HUVEC/MSC, viability: what viability, T/C was measured?
[A] 87.2

[Q] API: value(readout=viability, T/C, system=KRAS patient-derived spheroids with HUVEC/MSC, viability) for record CCNC(=O)CC1N=C(c2ccc(Cl)cc2)c2cc(OC)ccc2-n2c(C)nnc21 (stereo not given) + CNCc1ccccc1-c1csc(C(C)Nc2nc(C)nc3cc(OC)c(OC)cc23)c1
[A] 54.2

[Q] Under KRAS patient-derived spheroids with HUVEC/MSC, viability: viability, T/C value of CC1OCC2(CCN(c3cnc(Sc4ccnc(N)c4Cl)c(N)n3)CC2)C1N (stereo not given) + CNCc1ccccc1-c1csc(C(C)Nc2nc(C)nc3cc(OC)c(OC)cc23)c1 ?
[A] 77.3

###

- Tested on: KRAS patient-derived spheroids with HUVEC/MSC, viability
- procedure.details: Anticancer human tumor 519858-162-T-J1-PDC cell line growth inhibition [KRAS2];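 further: compound exposure lasted seven days before readout; 100% = DMSO vehicle control viability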
- details: second compound 3.16 µM; first compound 10 µM; stronger effect = lower value
value.type: viability, T/C (%)
Write the answer as a number in %, unit excluded.

[Q] Recorded viability, T/C of CCNC(=O)CC1N=C(c2ccc(Cl)cc2)c2cc(OC)ccc2-n2c(C)nnc21 (stereo not given) + C=CC(=O)N1CCN(c2nc(=O)n(-c3c(C)ccnc3C(C)C)c3nc(-c4c(O)cccc4F)c(F)cc23)C(C)C1 , please.
[A] 29.4

[Q] Could you tell me which viability, T/C is on file for CC1OCC2(CCN(c3cnc(Sc4ccnc(N)c4Cl)c(N)n3)CC2)C1N (stereo not given) + CNCc1ccccc1-c1csc(C(C)Nc2nc(C)nc3cc(OC)c(OC)cc23)c1 ?
[A] 41.2

[Q] I'd like to know its viability, T/C. The compound in question is CC(C)NCC(C(=O)N1CCN(c2ncnc3c2C(C)CC3O)CC1)c1ccc(Cl)cc1 (stereo not given) + C=CC(=O)N1CCN(c2nc(OCC3CCCN3C)nc3c2CCN(c2cccc4cccc(C)c24)C3)CC1CC#N
[A] 41.5

[Q] Using the record for CC1(C)CCC(CN2CCN(c3ccc(C(=O)NS(=O)(=O)c4ccc(NCC5CCOCC5)c([N+](=O)[O-])c4)c(Oc4cnc5[nH]ccc5c4)c3)CC2)=C(c2ccc(Cl)cc2)C1 + CNCc1ccccc1-c1csc(C(C)Nc2nc(C)nc3cc(OC)c(OC)cc23)c1 , report its viability, T/C.
[A] 15.5

[Q] Need viability, T/C of Cn1nccc1Nc1nccc(-c2cc3c(s2)C(C)(C)N(CCN2CCOCC2)C3=O)n1 + C=CC(=O)N1CCN(c2nc(=O)n(-c3c(C)ccnc3C(C)C)c3nc(-c4c(O)cccc4F)c(F)cc23)C(C)C1 , thanks.
[A] 29.3

[Q] Which viability, T/C reading was recorded for the compound CC1(C)CCC(CN2CCN(c3ccc(C(=O)NS(=O)(=O)c4ccc(NCC5CCOCC5)c([N+](=O)[O-])c4)c(Oc4cnc5[nH]ccc5c4)c3)CC2)=C(c2ccc(Cl)cc2)C1 + C=CC(=O)N1CCN(c2nc(OCC3CCCN3C)nc3c2CCN(c2cccc4cccc(C)c24)C3)CC1CC#N ?
[A] 0.42

[Q] // viability, T/C lookup, key: COc1cc2nccc(Oc3ccc(NC(=O)C4(C(=O)Nc5ccc(F)cc5)CC4)cc3)c2cc1OC + COc1cc2nc(C)nc(NC(C)c3cc(N)cc(C(F)(F)F)c3)c2cc1OC1CCOC1
[A] 82

[Q] Entry COC(=O)c1ccc2c(C(=Nc3ccc(N(C)C(=O)CN4CCN(C)CC4)cc3)c3ccccc3)c(O)[nH]c2c1 + CC1OCC2(CCN(c3cnc(Sc4ccnc(N)c4Cl)c(N)n3)CC2)C1N has what viability, T/C?
[A] 83.2

[Q] Given the compound COc1cc2nccc(Oc3ccc(NC(=O)C4(C(=O)Nc5ccc(F)cc5)CC4)cc3)c2cc1OC + CC1OCC2(CCN(c3cnc(Sc4ccnc(N)c4Cl)c(N)n3)CC2)C1N , what is its reported viability, T/C?
[A] 99.4

[Q] Recorded viability, T/C of COc1cc(Nc2ncc3c(n2)-c2ccc(Cl)cc2C(c2c(F)cccc2OC)=NC3)ccc1C(=O)O + CC1OCC2(CCN(c3cnc(Sc4ccnc(N)c4Cl)c(N)n3)CC2)C1N , please.
[A] 71.1

Source listed as PubChem BioAssay AID1963872.
